- Tested on: chronic unpredictable stress (CUS) model in rats
- protocol: Sucrose solution preference in CUS model in rats
- Type: in vivo
- test settings: 7.5 mg/kg intragastric daily, 7 days
measure name: Sucrose solution preference (%)
Give a bare numeral; the unit % is implied.

// below: answered compounds
compound: CCOc1c(OC)c(Br)c2c3c1Oc1cc4c(cc1OC)CCN(C)C4Cc1ccc(cc1)Oc1cc(c(Br)cc1OC)CC3N(C)CC2 (stereo not drawn) [Compound 5, 5,14-dibromo-7-ethoxy fangchinoline]
system: chronic unpredictable stress (CUS) model in rats
result value: 84.1

compound: CCCCOc1c(OC)cc2c3c1Oc1cc4c(cc1OC)CCN(C)C4Cc1ccc(cc1)Oc1cc(ccc1OC)CC3N(C)CC2 (stereo not drawn) [Compound 7, 7-butoxy fangchinoline]
system: chronic unpredictable stress (CUS) model in rats
result value: 70.7

Then this compound:
Request: State, in one line, measured Sucrose solution preference of COc1ccc2cc1Oc1ccc(cc1)CC1c3cc(c(OC)cc3CCN1C)Oc1c(OC)c(OC)c(Cl)c3c1C(C2)N(C)CC3 (stereo not drawn) [Compound 1, 5-chloro-7-methoxy fangchinoline]
Result: 69.6
